tested on: HCT-15 colon; experiment: NCI-60 one-dose screen, 48 h (100 = growth as untreated, 0 = no growth, -100 = all killed); conditions: 10 µM unless noted
The panel holds about 83,000 compounds, 20% with a hit somewhere; the sample as a whole holds those more often.
Under this convention, yes denotes growth strictly below 90% and no denotes growth at or above 90%.

Worked cases, answers included:
{"COMPOUND": "O=C(O)c1ccccc1Oc1cc(-c2ccco2)nc(OCCBr)n1", "CLASS LABEL": "no"}
{"COMPOUND": "O=C1CC(c2ccsc2)c2snc(-c3ccc(Cl)cc3)c2N1 (centres undefined)", "CLASS LABEL": "yes"}
{"COMPOUND": "CCOC(=O)c1sc(NC(=O)CN2CCC(Cc3ccccc3)CC2)nc1C", "CLASS LABEL": "no"}
{"COMPOUND": "COc1ccc(/C=C2\\CN(Cc3cn(CCCNc4ccnc5cc(Cl)ccc45)nn3)C/C(=C\\c3ccc(OC)cc3)C2=O)cc1", "CLASS LABEL": "yes"}

In the record for Cc1nn(-c2ccccc2)c2nc3nc4c(c(N)c3c(-c3ccc(Cl)cc3)c12)CCCC4 , is growth less than 90%? no

In the record for Cc1ccc(N=c2nc3sc4c(C)ccc(C)c4n3c(N)c2C#N)cc1 , is growth less than 90%? no

In the record for COC(=O)c1c2c(c(C)[n+]([O-])c1C)C(=O)C=C(NCc1ccc(F)c(Cl)c1)C2=O , is growth less than 90%? yes

In the record for CCOC(=O)c1c(Cl)c2c(n1Cc1cc(OC)cc(OC)c1)-c1oncc1CCC2 , is growth less than 90%? yes

* * *

tested on: NCI-H460 lung; test: NCI-60 one-dose screen, 48 h (100 = growth as untreated, 0 = no growth, -100 = all killed); details: 10 µM unless noted
Compounds without any hit were thinned out: in the full panel of roughly 83,000, 20% have a hit. Active and inactive are the calls of the source. How the source made its calls: active means growth percent below 10; inactive means the rest.
ASSAY READOUT: growth

Here are 5 molecules together with their reported answers.
{"MOLECULE": "Cc1c(C(=O)Nc2nc(-c3ccccc3)cs2)nnn1-c1ccccc1Br", "growth": "45.2% [50 µM] (inactive)"}
{"MOLECULE": "CN1CCN(C(=O)OCCOCCOC(=O)N2CCN(C)CC2)CC1", "growth": "107% (inactive)"}
{"MOLECULE": "c1ccc(-c2nc(N3CCOCC3)c3c4c(sc3n2)CCCCCC4)nc1", "growth": "33.6% (inactive)"}
{"MOLECULE": "CC1(C)N=C(N)N=C(N)N1c1cccc(/C=C/C=C/c2cccc([N+](=O)[O-])c2)c1", "growth": "21.3% (inactive)"}
{"MOLECULE": "Cn1c(=O)c2c(-c3ccccc3F)n(-c3ccc4c(c3)OCO4)cc2n(C)c1=O", "growth": "99.4% (inactive)"}

Then this molecule:
Give the value of growth reported for the following: NS(=O)(=O)c1ccc(C(=O)N/N=C(\CS(=O)(=O)c2ccccc2)c2cc3cc(Br)ccc3o2)cc1 96.3% (inactive)

* * *

Tested on: OVCAR-8 ovarian
Test: NCI-60 one-dose screen, 48 h (100 = growth as untreated, 0 = no growth, -100 = all killed)
Conditions: 10 µM unless noted
Protocol: Growth inhibition of the OVCAR-8 human tumor cell line is measured as a screen for anti-cancer activity. Cells are grown in 96 well plates and exposed to the test compound for 48 hours. Compounds are tested at a single concentration, which is 10^-5 M for most compounds. The reported endpoint is percent growth (GI% or GIPRCNT), where numbers from 0 - 100% represent growth inhibition, and numbers from -100% - 0 represent cell death. For example, a value of 40 represents 60% growth inhibition. […]
Compounds without any hit were thinned out: in the full panel of roughly 83,000, 20% have a hit.
ASSAY READOUT: growth (%)
The figure you give is taken to be in %; do not add the unit.

{"COMPOUND": "CN1CCc2c(c3ccccc3c3ccccc23)C1", "growth [%]": 37.3}
{"COMPOUND": "COc1cc(/C=C/C(=O)C2=C(/C=C/c3ccc(O)c(OC)c3)NC(=O)NC2c2ccc(O)c(OC)c2)ccc1O (stereo not drawn)", "growth [%]": 86.3}

Give the value of growth reported for the following: COc1c(O)c2c3c(c1OC)-c1ccccc1CC3N(S(=O)(=O)c1ccc(C)cc1)CC2 (stereo not drawn) 53.7

Give the value of growth reported for the following: O=C1/C(=C/c2ccc(Oc3ccccc3)cc2)N=C(c2ccccc2)N1CCc1cccs1 88.6

Give the value of growth reported for the following: O=C1/C(=C/c2ccc(F)cc2)CN(Cc2cn(CCNc3ccnc4cc(Cl)ccc34)nn2)C/C1=C\c1ccc(F)cc1 -5.64

Give the value of growth reported for the following: COc1cccc(C2C3=C(COC3=O)N(CCO)c3cc4c(cc32)CCC4)c1 (stereo not drawn) 20.9

Give the value of growth reported for the following: COc1cc(-c2nc(SC(C)C)nc(Nc3ccccc3C)c2C#N)cc(OC)c1OC 103

Give the value of growth reported for the following: COc1ccc(Cn2c(Br)c3c(c2-c2cc(OC)c(OC)c(OC)c2)CCc2sc(N)nc2-3)cc1 12.3

Give the value of growth reported for the following: CN1CCC(OC2c3ccccc3CCc3ccccc32)CC1 97.6

Give the value of growth reported for the following: COC(=O)CCC(=O)c1ccccc1 102

Give the value of growth reported for the following: COC(=O)[C@@H]1CCCN1C(=O)[C@@H]1CCCN1C(=O)[C@@H](Cc1c[nH]c2ccccc12)NC(=S)Nc1cc(C(F)(F)F)cc(C(F)(F)F)c1 67.6

Give the value of growth reported for the following: CCC(=O)Nc1nnc(Cc2ccc(OC)c(OC)c2)s1 -32.6

Give the value of growth reported for the following: O=C1CC(c2ccsc2)c2snc(-c3ccc(Cl)cc3)c2N1 (stereo not drawn) 40.8

Give the value of growth reported for the following: c1ccc(-c2n(Cc3ccc4ccccc4n3)c3ccccc3[n+]2Cc2ccc3ccccc3n2)cc1 7.66

Give the value of growth reported for the following: CC(=O)Nc1ccc(S(=O)(=O)N/N=C\c2ccc(Cl)c(Cl)c2)cc1 103

Give the value of growth reported for the following: COC(=O)[C@@]12CC[C@@H](C)[C@]3(C[C@@H](c4ccoc4)OC3=O)[C@H]1CC[C@@H]1O[C@@]12C 102

Give the value of growth reported for the following: Cc1cc(NS(=O)(=O)c2ccc(NC(=O)COc3ccc(-c4cc5ccccc5[nH]4)cc3)cc2)no1 32.3

Give the value of growth reported for the following: COc1ccc(/C=C2\CN(Cc3cn(CCCNc4ccnc5cc(Cl)ccc45)nn3)C/C(=C\c3ccc(OC)cc3)C2=O)cc1 1.09

Give the value of growth reported for the following: COc1ccc(/C=C(\C#N)c2cc3ccccc3n2C)cc1 34.2

* * *

Parameter: growth. Scope: all listed entries.
system: BT-549 breast; assay: NCI-60 one-dose screen, 48 h (100 = growth as untreated, 0 = no growth, -100 = all killed); details: 10 µM unless noted
Compounds without any hit were thinned out: in the full panel of roughly 83,000, 20% have a hit.
The figure you give is taken to be in %; do not add the unit.

{"COMPOUND": "COc1cc(C(F)(F)F)ccc1-c1cc(-c2ccc(F)cc2)n[nH]1", "growth [%]": 106}
{"COMPOUND": "C(=C\\c1ccccc1)/CN1CCN(C(c2ccccc2)c2ccccc2)CC1", "growth [%]": 92.2}
{"COMPOUND": "Cn1c2ccccc2c2nn(Cc3ccccc3)c(=O)nc21", "growth [%]": 110}
{"COMPOUND": "COc1cc(-c2ccc3cc(OC)c(OC)c(OC)c3c2)cc(OC)c1OC", "growth [%]": 72.2}
{"COMPOUND": "CSc1ccc(OC(C)=O)cc1C", "growth [%]": 98}

Give the value of growth reported for the following: Cc1cc(=O)[nH]n1-c1cc(Cl)ccc1N 87.1

Give the value of growth reported for the following: Cc1cccc2c(=O)c3c(sc12)c(NCCNCCO)nc1ccccc13 78.4

* * *

tested on: RPMI-8226 leukemia; experiment: NCI-60 one-dose screen, 48 h (100 = growth as untreated, 0 = no growth, -100 = all killed); details: 10 µM
The panel holds about 83,000 compounds, 20% with a hit somewhere; the sample as a whole holds those more often.
Under this convention, Yes denotes growth strictly below 70% and No denotes growth at or above 70%.

Worked cases, answers included:
{"COMPOUND": "COCCOC1=C(Cl)C(=O)c2ccccc2C1=O", "CLASS LABEL": "Yes"}
{"COMPOUND": "CCCCCCCC/C=C\\CCCCCCCCOc1cccc(CC(=O)NCC[N+]2(C)CCOCC2)c1", "CLASS LABEL": "No"}
{"COMPOUND": "C=C(C)CCCC(C)CC#N (stereo not given)", "CLASS LABEL": "No"}
{"COMPOUND": "COc1ccc(/C=C2\\CN(Cc3cn(CCCNc4ccnc5cc(Cl)ccc45)nn3)C/C(=C\\c3ccc(OC)c(OC)c3)C2=O)cc1OC", "CLASS LABEL": "Yes"}

In the record for Cc1cccc2c(=O)c3c(sc12)c(NCCNCCO)nc1ccccc13 , is growth less than 70%? Yes

In the record for Cc1nc2cc(Nc3nc(Nc4ccc(F)cc4)nc(-c4cccs4)n3)ccc2n1Cc1ccccc1 , is growth less than 70%? Yes

In the record for CCCCNNC(=O)c1ccc(Br)cc1 , is growth less than 70%? Yes

In the record for O=c1c2cc(F)ccc2oc2c(NCCNCCO)nc3ccccc3c12 , is growth less than 70%? Yes

In the record for COc1ccc(/C=C2\SC(=O)N(CN3CCN(c4cc5c(cc4F)c(=O)c(C(=O)O)cn5C4CC4)CC3)C2=O)cc1 , is growth less than 70%? No
